# procedure text: Cytotoxicity against MDCK cells assessed as reduction in cell viability after 48 hrs by crystal violet staining based method
# Parameters: species or system Canis lupus familiaris
# assay conditions: dog
Rule for this label: fulfilled means CC50 at 48 h is less than 2 mM; not fulfilled means CC50 at 48 h is at least 2 mM.

Solved cases below.
CCCCCCCc1coc(=O)c(C)c1O :: not fulfilled
CCC(C)CCCCc1coc(=O)c(C)c1O (centres undefined) :: fulfilled
COc1c(CCCCC(C)C)coc(=O)c1C :: fulfilled
Cc1c(O)c(CCCCC(C)C)coc1=O :: fulfilled
Cc1c(O)c(CCCC(C)C)coc1=O :: fulfilled
NC(=O)c1ncn([C@@H]2O[C@H](CO)[C@@H](O)[C@H]2O)n1 :: fulfilled
CCC(C)CCCCc1coc(=O)c(C)c1OC (centres undefined) :: fulfilled

Then there is this compound:
Inquiry: Please determine if CCCCCCCc1coc(=O)c(C)c1OC is below 2 mM in terms of CC50 at 48 h.
Reply text: not fulfilled

---

Documented pIC50 across a set of compounds
# Test system: H3N2 subtype
# procedure text: Antiviral activity against Influenza A virus (A/Aichi/2/1968(H3N2)) infected in MDCK cells assessed as inhibition of virus-induced cytopathicity after 48 hrs by crystal violet staining based method
# Format: functional, organism-based
# reply with the number alone; pIC50 is -log10 of concentration in mol/L

Below: 3 compounds and their reported pIC50.
NC(=O)c1ncn([C@@H]2O[C@H](CO)[C@@H](O)[C@H]2O)n1 :: 4.00
CCCCCCCc1coc(=O)c(C)c1OC :: 4.34
CCCCCCCc1coc(=O)c(C)c1O :: 4.13

Inquiry: Given the entry CCC(C)CCCCc1coc(=O)c(C)c1OC (centres undefined) , what pIC50 was observed with H3N2 subtype?
Reply text: 4.14

Inquiry: State its pIC50 on H3N2 subtype: Cc1c(O)c(CCCCC(C)C)coc1=O
Reply text: 3.82

---

# Tested on: H3N2 subtype
# procedure text: Antiviral activity against Influenza A virus (A/Aichi/2/1968(H3N2)) infected in MDCK cells assessed as inhibition of virus-induced cytopathicity after 48 hrs by crystal violet staining based method
# Assay type: functional, organism-based
Each entry below lists one item and its recorded pIC50 value.
Scale for pIC50: -log10 of concentration given in mol/L; no unit attached.

Take a look at these entries with their results.
COc1c(CCCC(C)C)coc(=O)c1C :: 4.02
COc1c(CCCCC(C)C)coc(=O)c1C :: 4.19
CCC(C)CCCCc1coc(=O)c(C)c1O (centres undefined) :: 4.08

Next compound, pIC50 to be filled in.
Inquiry: Request the reported pIC50 associated with Cc1c(O)c(CCCC(C)C)coc1=O
Reply text: 3.98

These entries and their values trace back to ChEMBL document CHEMBL4229464.
